pIC50: recorded values
Molecular target: RON (human) (Homo sapiens)
Sequence (Q04912 25-1400): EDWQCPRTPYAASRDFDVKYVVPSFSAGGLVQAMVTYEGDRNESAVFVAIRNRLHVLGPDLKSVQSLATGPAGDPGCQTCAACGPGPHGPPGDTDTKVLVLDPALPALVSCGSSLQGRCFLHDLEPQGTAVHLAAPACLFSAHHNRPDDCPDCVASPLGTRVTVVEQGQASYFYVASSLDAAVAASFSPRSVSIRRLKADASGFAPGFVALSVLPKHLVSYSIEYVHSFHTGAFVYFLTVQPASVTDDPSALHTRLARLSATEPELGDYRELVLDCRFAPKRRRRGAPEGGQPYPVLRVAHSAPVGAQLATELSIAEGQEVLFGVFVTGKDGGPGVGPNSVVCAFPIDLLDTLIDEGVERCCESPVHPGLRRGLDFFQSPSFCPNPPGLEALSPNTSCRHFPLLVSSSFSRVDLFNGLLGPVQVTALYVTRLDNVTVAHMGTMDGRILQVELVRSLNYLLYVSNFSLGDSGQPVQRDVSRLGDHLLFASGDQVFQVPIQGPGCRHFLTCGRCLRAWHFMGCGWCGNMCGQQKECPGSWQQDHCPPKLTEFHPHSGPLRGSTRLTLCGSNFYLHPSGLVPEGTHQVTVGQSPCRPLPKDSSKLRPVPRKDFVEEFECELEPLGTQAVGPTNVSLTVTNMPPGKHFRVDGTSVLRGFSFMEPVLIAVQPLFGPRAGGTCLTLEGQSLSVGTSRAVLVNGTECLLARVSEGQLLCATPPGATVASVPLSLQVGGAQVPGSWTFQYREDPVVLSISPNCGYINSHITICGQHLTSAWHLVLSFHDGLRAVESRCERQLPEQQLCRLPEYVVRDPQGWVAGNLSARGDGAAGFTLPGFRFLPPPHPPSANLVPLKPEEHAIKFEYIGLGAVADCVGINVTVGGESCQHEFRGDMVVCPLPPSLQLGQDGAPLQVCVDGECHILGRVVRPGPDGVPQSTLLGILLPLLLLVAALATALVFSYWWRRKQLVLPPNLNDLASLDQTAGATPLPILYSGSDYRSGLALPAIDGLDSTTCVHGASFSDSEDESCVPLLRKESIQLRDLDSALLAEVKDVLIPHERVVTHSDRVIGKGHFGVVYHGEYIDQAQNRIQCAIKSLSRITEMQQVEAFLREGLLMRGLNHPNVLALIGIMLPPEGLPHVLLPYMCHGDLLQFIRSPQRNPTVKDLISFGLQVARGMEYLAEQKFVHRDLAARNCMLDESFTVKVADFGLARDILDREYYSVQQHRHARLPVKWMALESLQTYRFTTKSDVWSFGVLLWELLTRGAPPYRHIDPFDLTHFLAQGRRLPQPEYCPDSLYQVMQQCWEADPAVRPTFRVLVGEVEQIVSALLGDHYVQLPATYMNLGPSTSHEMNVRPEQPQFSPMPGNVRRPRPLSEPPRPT
Test: RON (human) AlphaScreen kinase assay, Km of ATP
Format: biochemical
Details: AlphaScreen, Km of ATP; read-out: RON biochemical IC50
pIC50: −log10 of the molar value.

> print(dat)
                                item.smiles                 target.desc       reading
1  Cc1oc2c(O[C@H](C)c3c(Cl)ccc(F)c3Cl)c(N)ncc2c1-c1cnn(C2CCNCC2)c1  RON (human) (Homo sapiens)  5.30 to 6.30
2  C[C@@H](Oc1c(N)ncc2c(C3=CCN(C(=O)N4CCN(CC(F)(F)F)CC4)CC3)coc12)c1c(Cl)ccc(F)c1Cl  RON (human) (Homo sapiens)  5.30 to 6.30

query: Look up pIC50 for this compound: C[C@@H](Oc1c(N)ncc2c(-c3cccc(CN4CCCCC4)c3)coc12)c1c(Cl)ccc(F)c1Cl
result: > 6.30

Reference source: patent US8022206B2
